These entries and their values trace back to ChEMBL document CHEMBL5614448.

Give Ki for every item shown.
biological target: 5-hydroxytryptamine receptor 2A (Homo sapiens, UniProt P28223); experiment: Displacement of [125I]DOI from 5-HT2A receptor (unknown origin) assessed as inhibition constant
Sequence (P28223 whole entry): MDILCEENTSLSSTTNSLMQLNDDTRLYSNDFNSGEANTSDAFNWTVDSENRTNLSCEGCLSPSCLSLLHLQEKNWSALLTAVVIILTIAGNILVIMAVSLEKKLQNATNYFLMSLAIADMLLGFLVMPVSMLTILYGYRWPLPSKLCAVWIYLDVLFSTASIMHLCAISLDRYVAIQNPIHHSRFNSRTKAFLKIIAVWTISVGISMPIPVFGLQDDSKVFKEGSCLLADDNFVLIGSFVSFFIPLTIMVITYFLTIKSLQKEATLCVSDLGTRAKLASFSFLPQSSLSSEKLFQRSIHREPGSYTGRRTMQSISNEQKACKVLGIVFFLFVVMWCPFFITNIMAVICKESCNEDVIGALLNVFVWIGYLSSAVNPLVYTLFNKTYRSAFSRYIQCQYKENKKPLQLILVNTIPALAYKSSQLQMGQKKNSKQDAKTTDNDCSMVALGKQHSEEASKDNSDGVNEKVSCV
The figure you give is taken to be in pM; do not add the unit.

stdin: Item under review: `C#CCN(CC)C(=O)[C@@H]1C=C2c3cccc4[nH]cc(c34)C[C@H]2N(C)C1` . Reported Ki?
stdout: 360

stdin: Give the measured Ki of `CN(CC(F)(F)F)C(=O)[C@@H]1C=C2c3cccc4[nH]cc(c34)C[C@H]2N(C)C1` .
stdout: 260

stdin: What Ki value was documented for this compound, `CN1C[C@H](C(=O)N(CC(F)F)CC(F)F)C=C2c3cccc4[nH]cc(c34)C[C@H]21` ?
stdout: 330

stdin: Reported Ki, compound `CN1C[C@H](C(=O)N(CCF)CC(F)F)C=C2c3cccc4[nH]cc(c34)C[C@H]21` : ____
stdout: 430

stdin: Ki for `CCN(CCF)C(=O)[C@@H]1C=C2c3cccc4[nH]cc(c34)C[C@H]2N(C)C1` ?
stdout: 340

stdin: # input compound: `CCN(CC(F)F)C(=O)[C@@H]1C=C2c3cccc4[nH]cc(c34)C[C@H]2N(C)C1` ; wanted: its Ki
stdout: 210

stdin: Endpoint output: Ki of `C#CCN(C)C(=O)[C@@H]1C=C2c3cccc4[nH]cc(c34)C[C@H]2N(C)C1` . Value?
stdout: 540

stdin: Name the reported Ki value associated with the compound `CCN(CC#N)C(=O)[C@@H]1C=C2c3cccc4[nH]cc(c34)C[C@H]2N(C)C1`
stdout: 190

stdin: Any idea what its Ki is? The compound is `CCN(CC(F)(F)F)C(=O)[C@@H]1C=C2c3cccc4[nH]cc(c34)C[C@H]2N(C)C1`
stdout: 450

* * *

molecular target: 5-hydroxytryptamine receptor 2A (Homo sapiens); experiment: Activation of human 5-HT2A receptor
Assignment: determine reported log10(EC50) for the given molecules.
The figures below represent log10 of EC50, where EC50 is stated in nM.

stdin: Query log10(EC50) on 5-hydroxytryptamine receptor 2A (Homo sapiens) for `CCN(CCF)C(=O)[C@@H]1C=C2c3cccc4[nH]cc(c34)C[C@H]2N(C)C1`
stdout: -0.37

stdin: Identify the measured log10(EC50) of `C#CCN(CC)C(=O)[C@@H]1C=C2c3cccc4[nH]cc(c34)C[C@H]2N(C)C1` for 5-hydroxytryptamine receptor 2A (Homo sapiens).
stdout: -0.08

stdin: For 5-hydroxytryptamine receptor 2A (Homo sapiens), provide log10(EC50) of `C#CCN(C)C(=O)[C@@H]1C=C2c3cccc4[nH]cc(c34)C[C@H]2N(C)C1` please.
stdout: -0.01

stdin: Reported log10(EC50) for 5-hydroxytryptamine receptor 2A (Homo sapiens), given `CN(CC(F)(F)F)C(=O)[C@@H]1C=C2c3cccc4[nH]cc(c34)C[C@H]2N(C)C1` ?
stdout: 0.96

stdin: Lab note: need log10(EC50) with 5-hydroxytryptamine receptor 2A (Homo sapiens) for entry `CCN(CC(F)F)C(=O)[C@@H]1C=C2c3cccc4[nH]cc(c34)C[C@H]2N(C)C1` , please look it up.
stdout: -0.12

stdin: Requested read-out log10(EC50), target or system 5-hydroxytryptamine receptor 2A (Homo sapiens), entry `CN1C[C@H](C(=O)N(CC(F)F)CC(F)F)C=C2c3cccc4[nH]cc(c34)C[C@H]21`
stdout: -0.05

stdin: What log10(EC50) appears in the records for this molecule with 5-hydroxytryptamine receptor 2A (Homo sapiens)? `CCN(CC(F)(F)F)C(=O)[C@@H]1C=C2c3cccc4[nH]cc(c34)C[C@H]2N(C)C1`
stdout: 0.51

stdin: Find log10(EC50) (5-hydroxytryptamine receptor 2A (Homo sapiens)) for the entry `CN1C[C@H](C(=O)N(CCF)CC(F)F)C=C2c3cccc4[nH]cc(c34)C[C@H]21`
stdout: -0.60

stdin: // fetch 5-hydroxytryptamine receptor 2A (Homo sapiens) log10(EC50) for `CCN(CC#N)C(=O)[C@@H]1C=C2c3cccc4[nH]cc(c34)C[C@H]2N(C)C1`
stdout: -0.06

* * *

biological target: 5-hydroxytryptamine receptor 2A (Homo sapiens); assay: Activation of human 5-HT2A receptor assessed as maximal activation relative to control; details: filed as activator
EXPERIMENTAL_READOUT: max activation
Express the reported value numerically, then name its unit.

stdin: Given the entry `CN1C[C@H](C(=O)N(CCF)CC(F)F)C=C2c3cccc4[nH]cc(c34)C[C@H]21` , report its measured max activation.
stdout: 78%

stdin: Dear colleague, I am looking for the recorded max activation of the following compound: `CCN(CC(F)(F)F)C(=O)[C@@H]1C=C2c3cccc4[nH]cc(c34)C[C@H]2N(C)C1`
stdout: 82%

stdin: If you can, please state the reported max activation value of `CCN(CC(F)F)C(=O)[C@@H]1C=C2c3cccc4[nH]cc(c34)C[C@H]2N(C)C1` .
stdout: 77%

stdin: Name the recorded max activation for `CCN(CC#N)C(=O)[C@@H]1C=C2c3cccc4[nH]cc(c34)C[C@H]2N(C)C1` .
stdout: 68%

stdin: Field request: max activation | item: `CN(CC(F)(F)F)C(=O)[C@@H]1C=C2c3cccc4[nH]cc(c34)C[C@H]2N(C)C1`
stdout: 72%

stdin: Could you share which max activation value was measured for `CN1C[C@H](C(=O)N(CC(F)F)CC(F)F)C=C2c3cccc4[nH]cc(c34)C[C@H]21` ?
stdout: 82%

stdin: // lookup max activation for `CCN(CCF)C(=O)[C@@H]1C=C2c3cccc4[nH]cc(c34)C[C@H]2N(C)C1`
stdout: 69%

stdin: Look up max activation for this compound: `C#CCN(CC)C(=O)[C@@H]1C=C2c3cccc4[nH]cc(c34)C[C@H]2N(C)C1`
stdout: 68%

stdin: Which max activation is listed for `C#CCN(C)C(=O)[C@@H]1C=C2c3cccc4[nH]cc(c34)C[C@H]2N(C)C1` ?
stdout: 70%
